experimentalTarget: T1, human C3a receptor (C3aR) (human, UniProt Q16581 1-482)
T1 construct: whole, on cells
T1 sequence (looked up): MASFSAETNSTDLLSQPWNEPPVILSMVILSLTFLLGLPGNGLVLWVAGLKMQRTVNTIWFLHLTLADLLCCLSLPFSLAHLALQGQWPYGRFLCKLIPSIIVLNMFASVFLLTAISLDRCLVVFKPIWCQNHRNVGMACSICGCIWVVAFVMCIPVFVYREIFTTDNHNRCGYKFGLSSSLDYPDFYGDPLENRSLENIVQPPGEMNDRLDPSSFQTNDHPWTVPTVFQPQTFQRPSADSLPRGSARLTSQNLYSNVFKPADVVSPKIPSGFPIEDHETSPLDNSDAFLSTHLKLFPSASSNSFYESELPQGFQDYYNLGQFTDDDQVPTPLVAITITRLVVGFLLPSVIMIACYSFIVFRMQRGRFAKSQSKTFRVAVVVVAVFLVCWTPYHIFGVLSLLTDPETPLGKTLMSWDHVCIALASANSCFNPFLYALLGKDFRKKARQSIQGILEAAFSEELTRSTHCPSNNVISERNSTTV
measurementDescription: radioligand competition on C3aR-transfected RBL cells (radioligand not given)
parameter: pD2

recombinant C4a des-Arg^77 (ligand, UniProt P0C0L4 680-755, looked up, domain: C4a des-Arg^77; Expressed and purified under non-denaturing conditions; also called C4adR^77) NVNFQKAINEKLGQYASPTAKRCCQDGVTRLPMMRSCEQRAARVQQPDCREPFLSCCQFAESLRKKSRDKGQAGLQ	4.99 -log IC50
recombinant His6-tagged C5a des-Arg^74 (ligand, UniProt P01031 678-750, looked up, domain: C5a des-Arg^74; also called C5adR^74; not shown: His6 tag) TLQKKIEEIAAKYKHSVVKKCCYDGACVNNDETCEQRAARISLGPRCIKAFTECCVVASQLRANISHKDMQLG	5.02 -log IC50
recombinant His6-tagged C5a (ligand, UniProt P01031 678-751, looked up, domain: C5a; Expressed and purified under denaturing conditions; not shown: His6 tag) TLQKKIEEIAAKYKHSVVKKCCYDGACVNNDETCEQRAARISLGPRCIKAFTECCVVASQLRANISHKDMQLGR	5.54 -log IC50

Now consider a different binder.
Prompt line: Would you kindly share the measured pD2 for recombinant C4a (ligand, UniProt P0C0L4 680-756, looked up, domain: C4a; Expressed and purified under non-denaturing conditions) NVNFQKAINEKLGQYASPTAKRCCQDGVTRLPMMRSCEQRAARVQQPDCREPFLSCCQFAESLRKKSRDKGQAGLQR ?
Response line: 6.6 -log IC50
